system: RXF 393; test: NCI tumour cell line growth inhibition, 48 h
The source made the active and inactive calls. Cut-off read from the data, not from the text of the source: active = GI50 up to about 1.1 µM and inactive = higher.
I'd appreciate it if you could supply GI50 values for the items below.

# compound, recordedEndpoint, experimentalValue
rows = [
    ("C=C=C(C(=O)OC)[S+]([O-])c1ccc([N+](=O)[O-])cc1[N+](=O)[O-] (stereo unspecified)", "GI50", "30.7 µM (inactive)"),
    ("O=NN(CCCl)C(=O)NC1CCCCC1", "GI50", "35.3 µM (inactive)"),
    ("c1cnn(CN(Cn2cccn2)Cn2cccn2)c1", "GI50", "> 100 µM (inactive)"),
]

Give GI50 for each listed item.
1. CC1=C(C(=O)Nc2ccccc2C)C(c2ccc(N(C)C)cc2)C(C(=O)Nc2ccccc2C)=C(C)N1
2. COCc1cc2c(cc1/C=C/[N+](=O)[O-])OCO2
3. CC(=O)OC1CC2(O)C(CCC3(C)C(c4ccc(=O)oc4)CCC32O)C2(C)C1=CC(O)C1OC12 (stereo unspecified)
4. CN/C=C(/c1ccc(OC)cc1)C(O)c1ccc(OC)c(OC)c1 (stereo unspecified)
5. C=C1C2CCC3C4(C)CCCC(C)(C(=O)O)C4CCC3(C2)C1OC(=O)/C(C)=C/C (stereo unspecified)
6. Cc1ccc2nc3ccccc3c(C3C4C(=O)N(c5ccc(Br)cc5Cl)C(=O)C4ON3C(C(N)=O)c3ccccc3)c2c1 (stereo unspecified)

**Result**
1. 35.5 µM (inactive)
2. 18 µM (inactive)
3. 0.0331 µM (active)
4. > 100 µM (inactive)
5. 15.9 µM (inactive)
6. 13.3 µM (inactive)

Batch request: GI50 for each of the following compounds.
1. CCOC(=O)CSc1[nH]c(NC(=S)Nc2ccccc2)c(C(N)=O)c1C(N)=O
2. COc1ccc(N(C)Sc2ccccc2)cc1

**Result**
["> 10 µM (inactive)", "19.9 µM (inactive)"]
